target_or_test_system: T1, human PVRIG-his (AcroBiosystems, Cat NO. PVG-H52H4) (human, UniProt Q6DKI7 41-171, limits assumed)
T1 construct: also called human PVRIG protein
T1 sequence (looked up): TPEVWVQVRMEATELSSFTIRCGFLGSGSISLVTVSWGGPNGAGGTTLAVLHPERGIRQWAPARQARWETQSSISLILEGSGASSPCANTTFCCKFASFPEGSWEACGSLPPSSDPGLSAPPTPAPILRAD
protocol_details: competition ELISA, PVRIG-His coated, competitor human PVRL2-mFc
Recorded % relative activity (AUC) parental antibody/test antibody for the following binders
Kindly provide the numeric value in % only, without the unit symbol.

Field request: % relative activity (AUC) parental antibody/test antibody | item: PVRIG-A105-H3a (Fc fusion, humanized variant of PVRIG-A105; also called A105.VH3a; not shown: constant part not restated for the humanized forms; parents are VHH-hinge-CH2-CH3 of human IgG1; detected by anti-human) EVQLVESGGGLVQPGGSLRLSCAASGRTFDRHTMTWFRQAPGKEREFVATASRIPGDTYYVDSVKGRFTISRDNAKNSVYLQMNSLRAEDTAVYYCAATSAYSSEVDSYEKGSWYDNWGQGTMVTVSS
47.2

Value lookup for % relative activity (AUC) parental antibody/test antibody; key = PVRIG-A50-H1c (Fc fusion, humanized variant of PVRIG-A50; also called A50.VH1c; not shown: constant part not restated for the humanized forms; parents are VHH-hinge-CH2-CH3 of human IgG1; detected by anti-human) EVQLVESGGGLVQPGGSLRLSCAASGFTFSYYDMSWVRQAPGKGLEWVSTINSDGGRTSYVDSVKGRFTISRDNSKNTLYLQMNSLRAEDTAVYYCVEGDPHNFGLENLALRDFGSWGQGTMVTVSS
76.3

Give its % relative activity (AUC) parental antibody/test antibody value. Item: PVRIG-A50-H1b (Fc fusion, humanized variant of PVRIG-A50; also called A50.VH1b; not shown: constant part not restated for the humanized forms; parents are VHH-hinge-CH2-CH3 of human IgG1; detected by anti-human) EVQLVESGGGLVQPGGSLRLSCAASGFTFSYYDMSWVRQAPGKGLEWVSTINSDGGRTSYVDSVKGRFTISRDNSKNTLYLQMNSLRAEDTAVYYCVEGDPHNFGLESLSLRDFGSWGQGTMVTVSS
105

Next up:
Given PVRIG-A105-H1 (Fc fusion, humanized variant of PVRIG-A105; also called A105.VH1; not shown: constant part not restated for the humanized forms; parents are VHH-hinge-CH2-CH3 of human IgG1; detected by anti-human) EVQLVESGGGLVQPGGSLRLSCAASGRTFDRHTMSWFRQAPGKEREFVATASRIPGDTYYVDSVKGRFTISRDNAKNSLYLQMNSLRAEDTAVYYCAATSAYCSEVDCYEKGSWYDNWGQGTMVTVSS , state its recorded % relative activity (AUC) parental antibody/test antibody.
112
